target: Human Rheumatoid Synovial collagenase (Homo sapiens, UniProt P03956); construct: from tissue; host or cells: rheumatoid synovium (tissue or synovial cell culture not distinguished); assay: inhibition of collagenase (acetyl 14C collagen digestion, Cawston and Barrett); assay type: biochemical; settings: Table 2; 37° C., 16 hours, native acetyl 14C collagen, pH 7.6; read-out: IC50 (μM) Human Rheumatoid Synovial collagenase
Sequence (P03956 100-469): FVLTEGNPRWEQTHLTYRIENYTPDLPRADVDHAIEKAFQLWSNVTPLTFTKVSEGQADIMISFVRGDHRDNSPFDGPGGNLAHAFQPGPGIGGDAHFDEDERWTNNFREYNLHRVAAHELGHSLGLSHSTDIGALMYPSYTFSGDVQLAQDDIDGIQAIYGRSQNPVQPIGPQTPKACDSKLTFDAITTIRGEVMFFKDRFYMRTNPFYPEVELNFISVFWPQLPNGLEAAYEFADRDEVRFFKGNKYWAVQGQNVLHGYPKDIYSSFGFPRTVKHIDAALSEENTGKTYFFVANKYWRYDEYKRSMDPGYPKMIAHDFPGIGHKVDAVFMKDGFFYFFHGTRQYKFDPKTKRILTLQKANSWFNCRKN
parameter: IC50 (µM)

INSERT INTO measurements (molecule, measurement_units, observed) VALUES
  ('CNC(=O)[C@H](Cc1ccc(OC)cc1)NC(=O)C(CC(C)C)C(S)C(C)C (single isomer, unassigned) [Example 3 Isomer B]', 'µM', 5),
  ('CNC(=O)[C@@H](NC(=O)C(CC(C)C)C(C)S)[C@@H](C)OCc1ccccc1 (single isomer, unassigned) [Example 6 Isomer B]', 'µM', 4.9),
  ('CNC(=O)[C@H](Cc1ccc(OC)cc1)NC(=O)C(CC(C)C)C(C)S (single isomer, unassigned) [Example 1 Isomer B2]', 'µM', 1.5);

A = CCCCC(C(=O)N[C@@H](Cc1ccc(OC)cc1)C(=O)NC)C(C)S (single isomer, unassigned) [Example 5 Isomer B]
B = CNC(=O)[C@H](Cc1ccc(OC)cc1)NC(=O)C(CC(C)C)C(S)C(C)C (single isomer, unassigned) [Example 3 Isomer A]
Task item: // pick larger IC50 from pair: A vs B Give the chosen item's label as your response.
Reply: B
